# Test: BSK_hDFCGF_SRB: Viability Assessment in the BioMAP Diversity Plus: hDFCGF Assay (AID 2283061);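 note: cells exposed to compound for 24 h before the read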
# Assay Conditions: primary human foreskin fibroblasts
The source made the active and inactive calls. Rule for the calls: active = hit-call score of the fitted dose curve at least 0.9, where 1 is the maximum; inactive = score below 0.9.
Allowed answers: YES (active), NO (inactive)

Input line: In this assay, the call recorded for `NCC(F)(F)C(F)(F)C(F)(F)C(F)(F)C(F)(F)C(F)(F)C(F)(F)F` was what?
Output line: NO

Input line: Queued: `O=c1c(-c2ccc(O)cc2)coc2cc(O)ccc12`
Output line: NO

Input line: Queued: `CCCCCCCCCCCCN1CCCC1=O`
Output line: YES

----------
# Read-out: ABC Transporter (ABCB1), ABCB1 (gene 5243)
# Test: LTEA_HepaRG_ABCB1: Life Technologies and Expression Analysis (LTEA) Assay for ABC Transporter (ABCB1) using HepaRG (AID 2283460)
# Assay Conditions: mRNA level, 48 h; actives raise or lower the signal
Calls of active or inactive are those of the source. Rule for the calls: active = hit-call score of the fitted dose curve at least 0.9, where 1 is the maximum; inactive = score below 0.9.
Allowed answers: active, inactive

Input line: In this assay, the call recorded for `Cc1cc(C)c(O)c(C)c1` was what?
Output line: inactive

Input line: Queued: CCc1ccc(CCOc2ccc(CC3SC(=O)NC3=O)cc2)nc1 (centres undefined)
Output line: active

Input line: Queued: `c1ccc2c(c1)ccc1ccccc12`
Output line: inactive

Input line: Queued: N#C[C@@H]1CC(F)(F)CN1C(=O)CNC1CC2CCC(C1)N2c1ncccn1 (some centres undefined)
Output line: inactive

Input line: Queued: NC(=O)N1C(=O)C(C(=O)c2cc(Cl)cs2)c2cc(F)c(Cl)cc21 (centres undefined)
Output line: active

Input line: Queued: `CC1=C(/C=C/C(C)=C/C=C/C(C)=C/C(=O)O)C(C)(C)CCC1`
Output line: active

Input line: Queued: `CCN(CC)CCNc1ccc(CNC=O)c2sc3ccc(OC)cc3c(=O)c12`
Output line: active

Input line: Queued: `Oc1cc2ccccc2c2ccccc12`
Output line: inactive

Input line: Queued: `CCCCCCCCCCCCc1ccccc1S(=O)(=O)O`
Output line: inactive

Input line: Queued: CCCCC(CC)COC(=O)CCCCC(=O)OCC(CC)CCCC (centres undefined)
Output line: inactive

Input line: Queued: `CCCCOCCO`
Output line: inactive

Input line: Queued: `CCCCCCCCCCCCN1CCCC1=O`
Output line: inactive

Input line: Queued: `NC(=O)N(O)[C@@H]1C=C[C@H](Oc2cccc(Oc3ccc(F)cc3)c2)C1`
Output line: inactive

Input line: Queued: `CC[C@H](c1ccc(O)cc1)[C@@H](CC)c1ccc(O)cc1`
Output line: active

Input line: Queued: `CN1CCN(c2ccccc2/C=C2\SCCN(c3ccc(Cl)c(Cl)c3)C2=O)CC1`
Output line: inactive

Input line: Queued: `CCCCCCCC(=O)O`
Output line: active

Input line: Queued: `O=C(OCCOCCOC(=O)c1ccccc1)c1ccccc1`
Output line: inactive

Input line: Queued: `CCOC(=O)CC(O)(CC(=O)OCC)C(=O)OCC`
Output line: inactive

Input line: Queued: `CC(=O)NC1(c2cccc(F)c2)CCN(CC[C@@]2(c3ccc(Cl)c(Cl)c3)CN(c3ccccc3)C(=O)CO2)CC1`
Output line: active

Input line: Queued: `CN1CCC[C@H]1c1cccnc1`
Output line: inactive

Input line: Queued: `CCC(=C(c1ccc(O)cc1)c1ccc(OCCN(C)C)cc1)c1ccccc1`
Output line: inactive

Input line: Queued: `CCCCCCCCC(=O)O`
Output line: inactive

Input line: Queued: `CCCOc1sc(C(=O)N2CCC(c3cc(CN)ccc3F)CC2)c(C)c1Br`
Output line: inactive

Input line: Queued: CC(O)CO (centres undefined)
Output line: inactive
